tested on: KB; experiment: Antiproliferative activity against human KB cells assessed as cell growth inhibition; assay type: functional, cell-based
property: pIC50
pIC50 is a log-scale quantity: -log10 of the concentration expressed in molar.

Query: Need pIC50 of Oc1cc2cc(c1O)Oc1ccc(cc1)CCc1ccc(O)c(O)c1Oc1cccc(c1)CC2 [MARCHANTIN B] , thanks.
Response: 5.49

Query: Need pIC50 of "CC(C)=CCC[C@]1(C)CCC[C@]2(C)[C@@H](C=O)C(C=O)=CC[C@@H]12" , thanks.
Response: 5.49

Query: Need pIC50 of Oc1cc2cc(c1O)Oc1ccc(cc1)CCc1cccc(O)c1Oc1cccc(c1)CC2 [MARCHANTIN A] , thanks.
Response: 5.43

* * *

For each of the compounds below, state its MID.
tested on: Candida albicans; test: Antifungal activity against Candida albicans assessed as inhibition of fungal growth by MTT assay; type: functional
Note: unit µg/mL is implicit; provide only the numeric part.

Query: Please state recorded MID (tested on Candida albicans) of "Oc1cc2ccc1Oc1cccc(c1)CCc1ccc(O)c(c1)Oc1ccc(cc1)CC2"
Response: 0.25

Query: Please state recorded MID (tested on Candida albicans) of COC1Cc2cccc(c2)Oc2c(O)cccc2CCc2ccc(cc2)Oc2cc1cc(O)c2O (configuration not stated) [MARCHANTIN E]
Response: 2.5

Query: Please state recorded MID (tested on Candida albicans) of Oc1cc2cc(c1O)Oc1ccc(cc1)CCc1cccc(O)c1Oc1cccc(c1)CC2 [MARCHANTIN A]
Response: 2.5

Query: Please state recorded MID (tested on Candida albicans) of "Oc1ccc2cc1Oc1ccc(cc1)CCc1ccc(c(O)c1O)Oc1cccc(c1)CC2"
Response: 0.2

Query: Please state recorded MID (tested on Candida albicans) of Oc1cc2cc(c1O)Oc1ccc(cc1)CCc1ccc(O)c(O)c1Oc1cccc(c1)CC2 [MARCHANTIN B]
Response: 4

Query: Please state recorded MID (tested on Candida albicans) of "Oc1ccc2cc1Oc1ccc(cc1)CCc1c(cc(O)c(O)c1O)-c1ccc(cc1O)CC2"
Response: 4

* * *

assay: Antiproliferative activity against human KBV cells assessed as cell growth inhibition; type: functional, cell-based
property: IC50 (nM)
Note: unit nM is implicit; provide only the numeric part.

Query: Need IC50 of "CC(C)=CCC[C@]1(C)CCC[C@]2(C)[C@@H](C=O)C(C=O)=CC[C@@H]12" , thanks.
Response: 2700

* * *

system: Breast carcinoma cell; assay: Antiproliferative activity against human Breast cancer cell line assessed as cell growth inhibition; assay type: functional, cell-based
property: pIC50
pIC50 is a log-scale quantity: -log10 of the concentration expressed in molar.

Query: Please state recorded pIC50 (tested on Breast carcinoma cell) of Oc1cc2cc(c1O)Oc1ccc(cc1)CCc1cccc(O)c1Oc1cccc(c1)CC2 [MARCHANTIN A]
Response: 5.26

* * *

target: Polyunsaturated fatty acid 5-lipoxygenase (Homo sapiens) (UniProt P09917); experiment: Inhibition of ALOX5 (unknown origin) at 0.000001 M relative to control; conditions: dose 1 µM
For each of the molecules below, state its inhibition.

Query: Need inhibition of Oc1cc2cc(c1O)Oc1ccc(cc1)CCc1cccc(O)c1Oc1cccc(c1)CC2 [MARCHANTIN A] , thanks.
Response: 94%

Query: Need inhibition of "CC1=CCc2c(O)cc(CCc3ccccc3)cc2OC1" , thanks.
Response: 4%

Query: Need inhibition of "COc1ccc2c(c1)CCc1ccc(cc1)Oc1cc(ccc1O)CCc1ccc-2c(O)c1" , thanks.
Response: 4%

Query: Need inhibition of COC1Cc2cccc(c2)Oc2c(O)cccc2CCc2ccc(cc2)Oc2cc1cc(O)c2O (stereo not given) [MARCHANTIN E] , thanks.
Response: 4%

Query: Need inhibition of "CC1=CCc2c(O)cc(CCc3ccc(O)cc3)cc2OC1" , thanks.
Response: 4%

* * *

Heads up, these compounds all have IC50 values measured for DNA polymerase beta (Homo sapiens).
Note: unit µM is implicit; provide only the numeric part.

Query: Need IC50 of "Oc1ccc2c(c1)CCc1ccc(cc1)Oc1cc(cc(-c3cc4cc(c3O)Oc3ccc(cc3)CCc3cc(O)ccc3-c3ccc(cc3O)CC4)c1O)CCc1ccc-2c(O)c1" , thanks.
Response: 13

Query: Need IC50 of "COc1cc(CCc2cccc(Oc3c(O)cccc3CCc3ccc(O)cc3)c2)cc(O)c1O" , thanks.
Response: 14.4

Query: Need IC50 of Oc1cc2cc(c1O)Oc1ccc(cc1)CCc1cccc(O)c1Oc1cccc(c1)CC2 [MARCHANTIN A] , thanks.
Response: 14.4

Query: Need IC50 of Oc1cc2cc(c1O)Oc1ccc(cc1)CCc1ccc(O)c(O)c1Oc1cccc(c1)CC2 [MARCHANTIN B] , thanks.
Response: 14.4

* * *

For each of the compounds below, state its inhibition.
Target: Polyunsaturated fatty acid 5-lipoxygenase (Homo sapiens)
Sequence (whole entry): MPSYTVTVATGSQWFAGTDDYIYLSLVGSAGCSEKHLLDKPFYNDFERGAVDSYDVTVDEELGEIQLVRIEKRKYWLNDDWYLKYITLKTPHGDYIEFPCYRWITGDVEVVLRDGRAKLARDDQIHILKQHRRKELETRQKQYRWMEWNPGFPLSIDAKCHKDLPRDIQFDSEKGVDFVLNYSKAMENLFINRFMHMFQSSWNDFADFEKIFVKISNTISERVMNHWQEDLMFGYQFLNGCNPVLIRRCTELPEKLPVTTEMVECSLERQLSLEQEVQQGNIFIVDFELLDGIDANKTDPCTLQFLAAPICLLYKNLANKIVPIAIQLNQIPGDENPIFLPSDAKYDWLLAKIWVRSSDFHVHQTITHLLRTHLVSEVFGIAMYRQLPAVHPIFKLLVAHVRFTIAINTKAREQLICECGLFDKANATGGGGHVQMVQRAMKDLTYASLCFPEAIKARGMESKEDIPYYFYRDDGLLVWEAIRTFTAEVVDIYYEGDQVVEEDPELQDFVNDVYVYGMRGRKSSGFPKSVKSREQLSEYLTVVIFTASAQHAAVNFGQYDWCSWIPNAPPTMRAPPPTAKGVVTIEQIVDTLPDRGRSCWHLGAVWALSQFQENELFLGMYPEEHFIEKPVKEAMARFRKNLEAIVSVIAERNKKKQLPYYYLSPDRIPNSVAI
Assay: Inhibition of ALOX5 (unknown origin) at 0.000001 M relative to control
Conditions: dose 1 µM
Note: unit % is implicit; provide only the numeric part.

Query: Need inhibition of "CC1=CCc2c(cc(CCc3ccccc3)c(C(=O)O)c2O)OC1" , thanks.
Response: 4

Query: Need inhibition of Oc1cc2cc(c1O)Oc1ccc(cc1)CCc1cccc(O)c1Oc1cccc(c1)CC2O (stereo not drawn) , thanks.
Response: 4

Query: Need inhibition of "CC(C)=CCc1c(O)cc(CCc2ccccc2)cc1O" , thanks.
Response: 4

* * *

For each of the compounds below, state its IC50.
assay: Antioxidant activity assessed as DPPH radical scavenging activity; format: functional
# include the unit after the value

Query: Need IC50 of "Cc1cc(O)c(O)c([C@@]2(C)CCCC2(C)C)c1" , thanks.
Response: 1.9 µg/mL

Query: Need IC50 of Oc1cc2cc(c1O)Oc1ccc(cc1)CCc1cccc(O)c1Oc1cccc(c1)CC2 [MARCHANTIN A] , thanks.
Response: 20 µg/mL

Query: Need IC50 of "CC1(C)CCC[C@]1(C)c1cc(CCc2cc(O)c(O)c([C@@]3(C)CCCC3(C)C)c2)cc(O)c1O" , thanks.
Response: 2 µg/mL

Query: Need IC50 of "Cc1cc([C@@]2(C)CCCC2(C)C)c(O)c(O)c1Cc1cc(O)c(O)c([C@@]2(C)CCCC2(C)C)c1" , thanks.
Response: 2.7 µg/mL

* * *

For each of the molecules below, state its IC50.
target: Cyclooxygenase (Homo sapiens, UniProt P35354+P23219); experiment: Inhibition of COX (unknown origin); assay type: protein assay
Note: unit µM is implicit; provide only the numeric part.

Query: Need IC50 of "C=C(C)[C@H]1Cc2c(CCc3ccccc3)cc(O)c(O)c2O1" , thanks.
Response: 26.2

Query: Need IC50 of Oc1cc2cc(c1O)Oc1ccc(cc1)CCc1cccc(O)c1Oc1cccc(c1)CC2 [MARCHANTIN A] , thanks.
Response: 46.4

Query: Need IC50 of Oc1cc2cc(c1O)Oc1ccc(cc1)CCc1ccc(O)c(O)c1Oc1cccc(c1)CC2 [MARCHANTIN B] , thanks.
Response: 55.9

Query: Need IC50 of "CC1=CCc2c(cc(CCc3ccccc3)c(C(=O)O)c2O)OC1" , thanks.
Response: 39.7

Query: Need IC50 of "COc1cc(CCc2cccc(Oc3c(O)cccc3CCc3ccc(O)cc3)c2)cc(O)c1O" , thanks.
Response: 45.2

Query: Need IC50 of COC1Cc2cccc(c2)Oc2c(O)cccc2CCc2ccc(cc2)Oc2cc1cc(O)c2O (configuration not stated) [MARCHANTIN E] , thanks.
Response: 58

Query: Need IC50 of "Oc1ccc2c(c1)CCc1ccc(cc1)Oc1cc(ccc1O)CCc1ccc-2c(O)c1" , thanks.
Response: 53.5
